Assay: mn = molality of the nth substance listed, in mol/kg
Conditions: 308.15 K; 101 kPa; Liquid; Vibrating tube method; m1 = 0.5
Test readout: mass density (kg/m3)

                                   compound  readout_value
0  O=P([O-])(O)O.[K+] [monopotassium phosphate] + O        1044.55
1  O=P([O-])([O-])O.[Na+].[Na+] [disodium hydrogen phosphate] + O        1051.41
2  O=P([O-])(O)O.[Li+] [lithium dihydrogen phosphate] + O        1031.29
3  O=P([O-])([O-])O.[K+].[K+] [dipotassium hydrogen phosphate] + O        1069.06
4          O=P(O)(O)O [phosphoric acid] + O        1018.07
5  O=P([O-])([O-])[O-].[Na+].[Na+].[Na+] [trisodium phosphate] + O        1089.21
6  O=P([O-])([O-])[O-].[K+].[K+].[K+] [tripotassium phosphate] + O        1098.72
7  O=P([O-])(O)O.[Na+] [sodium dihydrogen phosphate] + O        1039.97
